biological target: human VPS34 (Homo sapiens (Human)); assay: Human VPS34 enzyme assay (Adapta TR-FRET ADP detection); assay type: biochemical; details: IC50 range class
pIC50: −log10 of the molar value.
As shown below, each of these molecules has a reported pIC50 value.

Lookup: Param item = CC(=O)Nc1cc(-c2cncc(N3CCCCS3(=O)=O)c2)ccn1 [Compound I-320] ; retrieve measured pIC50.
Found: 7.30 to 8.00

Lookup: Another molecule to check: CC(=O)Nc1cc(-c2cncc(N(C)C(=O)c3ccc(F)cc3F)c2)ccn1 [Compound I-397]
Found: 7.00 to 7.30

Lookup: // same read-out, input: Cc1ncc(-c2ccnc(NC(=O)C3CC3(F)F)c2)cc1NS(=O)(=O)N(C)C (single isomer, unassigned) [Compound I-498]
Found: 7.30 to 8.00

Lookup: Let us now turn to CC(=O)Nc1cc(-c2cnc(N)c(C(=O)N3CCC3)c2)ccn1 [Compound I-200]
Found: > 8.00

Lookup: Also check CC(=O)Nc1cc(-c2cnc(N)c(S(=O)(=O)O)c2)ccn1 [Compound I-122]
Found: 7.00 to 7.30

Lookup: And for CC(=O)Nc1cc(-c2cnc(N(C)C)c(NS(=O)(=O)c3ccc(F)cc3F)c2)ccn1 [Compound I-25] ?
Found: 7.30 to 8.00

====

Overview of reported IC50 across a group of compounds:
molecular target: human VPS34 (Homo sapiens (Human)); experiment: Human VPS34 enzyme assay (Adapta TR-FRET ADP detection); format: biochemical; details: IC50 range class

Example results:
CC(=O)Nc1cc(-c2cnc(N)c(S(=O)(=O)Nc3ccccc3)c2)ccn1 [Compound I-43] :: < 10 nM
Cc1c(-c2ccnc(NC(=O)C3CC3(F)F)c2)cnc(Cl)c1NS(=O)(=O)c1ccc(F)cc1F (centres unmarked) [Compound I-254] :: 10 to 50 nM
CN(C)S(=O)(=O)Nc1cc(-c2ccnc(Nc3ccnc(C4CC4)n3)c2)cn2nccc12 [Compound I-427] :: < 10 nM
CC(=O)Nc1cc(-c2cnc(C)c(NS(=O)(=O)N3CCC3)c2)ccn1 [Compound I-257] :: 10 to 50 nM
CC(=O)Nc1cc(-c2cncc(S(=O)(=O)NC3CC3)c2)ccn1 [Compound I-338] :: 10 to 50 nM

Lookup: Form field: reported IC50 of COC(=O)Nc1cc(-c2cncc(C(=O)C3CC3)c2)ccn1 [Compound I-180]
Found: 50 to 100 nM

Lookup: Also CC(=O)Nc1cc(-c2cnc(Cl)c(N3CCCN(C)S3(=O)=O)c2)ccn1 [Compound I-467] , if possible.
Found: < 10 nM

Lookup: Item: CC(=O)Nc1cc(-c2cnc(C)c(NS(=O)(=O)c3cccc(F)c3F)c2)ccn1 [Compound I-377]
Found: 10 to 50 nM

====

molecular target: UniProt Q8NEB9; experiment: Human VPS34 enzyme assay (Adapta TR-FRET ADP detection); type: biochemical; settings: IC50 range class
pIC50: −log10 of the molar value.
Each entry below carries its reported pIC50.

Some entries whose results are on file:
CCS(=O)(=O)c1cc(-c2ccnc(NC(C)=O)c2)cnc1N [Compound I-69] :: 7.30 to 8.00
CC(=O)Nc1cc(-c2cnc3cn(S(=O)(=O)C4CC4)nc3c2)ccn1 [Compound I-105] :: < 7.00
CC(=O)Nc1cc(-c2cnc(C)c(OS(=O)(=O)N(C)C)c2)ccn1 [Compound I-359] :: 7.30 to 8.00
CC(=O)Nc1cc(-c2cnc(C)c(N(CC3CC3)S(=O)(=O)C3CC3)c2)ccn1 [Compound I-83] :: < 7.00
CC(=O)Nc1cc(-c2cncc(NS(=O)(=O)c3ccc(F)cc3F)c2Cl)ccn1 [Compound I-394] :: 7.30 to 8.00
CC(=O)Nc1cc(-c2cnc(C)c(NS(=O)(=O)c3ccccc3C)c2)ccn1 [Compound I-211] :: > 8.00
CC(=O)Nc1cc(-c2cnc(NCC3CC3)c(NCC3CC3)c2)ccn1 [Compound I-65] :: < 7.00

Lookup: Any idea what pIC50 came out for Cc1nccc(Nc2cc(-c3cnc(C)c(C(=O)NCC4CC4)c3)ccn2)n1 [Compound I-285] on UniProt Q8NEB9?
Found: 7.30 to 8.00

====

target: human VPS34 (Homo sapiens (Human)); assay: Human VPS34 enzyme assay (Adapta TR-FRET ADP detection); assay type: biochemical; conditions: IC50 range class
pIC50: −log10 of the molar value.
Entries annotated with measured pIC50

Worked set:
CC(=O)Nc1cc(-c2cnc(N)c(N(C)S(C)(=O)=O)c2)ccn1 :: > 8.00
CC(=O)Nc1cc(-c2cnc(C)c(N3CCCNC3=O)c2)ccn1 :: < 7.00
COc1ncc(-c2ccnc(NC(C)=O)c2)cc1S(=O)(=O)NC1CCC1 :: 7.30 to 8.00

Lookup: Look at this molecule and give its reported pIC50. `CC(=O)Nc1cc(-c2cncc(C(=O)/C=C/c3ccc(F)cc3)c2)ccn1`
Found: < 7.00

Lookup: Let us now turn to `CC(=O)Nc1cc(-c2cnc(C)c(NS(=O)(=O)c3cccc(C)c3F)c2)ccn1`
Found: 7.30 to 8.00

Lookup: Ok, now `Cc1nccc(Nc2cc(-c3cnc(Cl)c(S(=O)(=O)NC45CC(C4)C5)c3)ccn2)n1`
Found: 7.30 to 8.00

Lookup: Quick one: `Cc1c(-c2ccnc(Nc3ccncn3)c2)cnc(Cl)c1NS(=O)(=O)c1ccccc1`
Found: > 8.00

Lookup: Again, but for `CC(=O)Nc1cc(-c2cnc(Cl)c(NS(=O)(=O)c3ccc(C#N)cc3Cl)c2C)ccn1`
Found: 7.30 to 8.00

====

target: human VPS34 (Homo sapiens (Human), UniProt Q8NEB9); assay: Human VPS34 enzyme assay (Adapta TR-FRET ADP detection); assay type: biochemical; conditions: IC50 range class
Sequence (Q8NEB9 whole entry): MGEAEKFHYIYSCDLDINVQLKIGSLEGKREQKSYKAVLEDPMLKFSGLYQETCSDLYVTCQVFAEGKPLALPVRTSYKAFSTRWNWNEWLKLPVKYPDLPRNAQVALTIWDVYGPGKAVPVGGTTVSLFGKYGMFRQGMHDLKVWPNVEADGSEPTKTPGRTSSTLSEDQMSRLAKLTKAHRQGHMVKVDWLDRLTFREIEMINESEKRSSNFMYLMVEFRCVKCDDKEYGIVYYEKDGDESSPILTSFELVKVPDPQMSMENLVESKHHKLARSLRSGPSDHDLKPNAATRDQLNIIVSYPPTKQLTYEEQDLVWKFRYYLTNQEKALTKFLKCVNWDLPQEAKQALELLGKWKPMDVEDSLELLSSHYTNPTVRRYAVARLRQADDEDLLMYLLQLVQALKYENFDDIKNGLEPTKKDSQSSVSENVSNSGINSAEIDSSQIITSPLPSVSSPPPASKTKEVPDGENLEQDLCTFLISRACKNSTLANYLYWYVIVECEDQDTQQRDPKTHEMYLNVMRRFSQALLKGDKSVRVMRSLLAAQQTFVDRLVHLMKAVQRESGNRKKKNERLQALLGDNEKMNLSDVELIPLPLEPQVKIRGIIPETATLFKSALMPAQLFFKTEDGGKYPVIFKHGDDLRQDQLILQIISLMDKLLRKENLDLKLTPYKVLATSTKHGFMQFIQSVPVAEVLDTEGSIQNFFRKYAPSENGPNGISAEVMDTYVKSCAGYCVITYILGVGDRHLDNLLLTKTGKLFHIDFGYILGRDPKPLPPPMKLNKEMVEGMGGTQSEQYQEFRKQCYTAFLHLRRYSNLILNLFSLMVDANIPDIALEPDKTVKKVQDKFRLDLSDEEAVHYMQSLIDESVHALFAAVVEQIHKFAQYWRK
// reported IC50 per item

Worked examples follow.
CC(=O)Nc1cc(-c2cnc(Cl)c(NS(=O)(=O)c3ccccc3)c2)c(C)cn1 [Compound I-56] :: 10 to 50 nM
Cc1nccc(Nc2cc(-c3cnc(C)c(C(=O)N(C)c4ccc(F)cc4F)c3)ccn2)n1 [Compound I-346] :: 10 to 50 nM
CNc1ncc(-c2ccnc(NC(C)=O)c2)cc1C(=O)N(C)C12CC(C1)C2 [Compound I-449] :: 10 to 50 nM
CC(=O)Nc1cc(-c2cnc(C)c(NS(C)(=O)=O)c2)ccn1 [Compound I-167] :: 10 to 50 nM
Cc1nccc(Nc2cc(-c3cnc(C)c(OCc4ccccc4)c3)ccn2)n1 [Compound I-363] :: > 100 nM
COc1ncc(-c2ccnc(NC(C)=O)c2)cc1C(=O)N(C)c1ccc(F)cc1F [Compound I-423] :: 10 to 50 nM
Cc1cnc(NC(=O)C2CC2)cc1-c1cnc(C)c(NS(=O)(=O)c2ccc(F)cc2F)c1 [Compound I-4] :: 10 to 50 nM
CC(=O)Nc1cc(-c2cnc(N)c(S(=O)(=O)NC3CCCCC3)c2)ccn1 [Compound I-101] :: < 10 nM
CC(=O)Nc1cc(-c2cnc(C)c(NS(=O)(=O)N3CCOCC3)c2)ccn1 [Compound I-447] :: < 10 nM
CC(=O)Nc1cc(-c2cnc(C)c(NS(=O)(=O)c3ccc(F)cc3F)c2C)ccn1 [Compound I-247] :: 10 to 50 nM

Lookup: Fill in the blank: the reported IC50 of CC(=O)Nc1cc(-c2cnc(N)c(S(=O)(=O)Cc3cccnc3)c2)ccn1 [Compound I-205] is ____.
Found: 10 to 50 nM

Lookup: What about CC(=O)Nc1cc(-c2cnc(N)c(C(=O)Nc3cc(C)cnn3)c2)ccn1 [Compound I-121] ?
Found: 50 to 100 nM

Lookup: And what about the compound CC(=O)Nc1cc(-c2cncc(C(=O)N(C)C)c2)ccn1 [Compound I-48] ?
Found: > 100 nM

Lookup: # iterate: CCOC(=O)Nc1cc(-c2cnc(C)c(NS(=O)(=O)c3ccc(F)cc3F)c2)ccn1 [Compound I-389]
Found: < 10 nM

Lookup: Now this one: CC(=O)Nc1cc(-c2cnc(C)c(NS(=O)(=O)c3cccc(C(F)(F)F)c3)c2)ccn1 [Compound I-168]
Found: < 10 nM

Lookup: Can you handle Cc1nccc(Nc2cc(-c3cnc(C)c(NS(=O)(=O)N(C)C)c3)ccn2)n1 [Compound I-286] next?
Found: < 10 nM

Lookup: Lookup COC(=O)Nc1cc(-c2cnc(N)c(S(=O)(=O)N3CCCC3)c2)ccn1 [Compound I-36]
Found: < 10 nM

====

molecular target: human VPS34 (Homo sapiens (Human)); experiment: Human VPS34 enzyme assay (Adapta TR-FRET ADP detection); format: biochemical; conditions: IC50 range class
pIC50: −log10 of the molar value.
Recorded measurements of pIC50, one per entry

Cc1nccc(Nc2cc(-c3cnc(Cl)c(C(=O)N4CCC4)c3C)ccn2)n1 [Compound I-457] :: 7.30 to 8.00
CC(=O)Nc1cc(-c2cnc3c(c2)S(=O)(=O)N[C@H](c2ccccc2)CO3)ccn1 [Compound I-420] :: < 7.00
Cc1nccc(Nc2cc(-c3cnc(C)c(C(=O)N(C)C)c3)ccn2)n1 [Compound I-266] :: 7.30 to 8.00
CC(=O)Nc1cc(-c2cnc(C)c(N(C)S(C)(=O)=O)c2)ccn1 [Compound I-96] :: 7.30 to 8.00
COC(=O)Nc1cc(-c2cnc(C)c(N3CCCS3(=O)=O)c2)ccn1 [Compound I-146] :: 7.30 to 8.00

Lookup: What does the record list as pIC50 for CC(=O)Nc1cc(-c2cnc(Cl)c(NS(=O)(=O)c3ccc(C4CC4)cc3F)c2C)ccn1 [Compound I-335] ?
Found: 7.30 to 8.00

Lookup: Please answer likewise for CC(=O)Nc1cc(-c2cnc(Cl)c(NS(=O)(=O)c3c(Cl)cccc3Cl)c2C)ccn1 [Compound I-354]
Found: 7.30 to 8.00

Lookup: Another compound to look at: Cc1ncc(-c2ccnc(Nc3ccc(C#N)cn3)c2)cc1NS(=O)(=O)c1ccc(F)cc1F [Compound I-228]
Found: > 8.00

Lookup: One more compound: CCN(CC)C(=O)c1cc(-c2ccnc(NC(C)=O)c2)cnc1N [Compound I-27]
Found: > 8.00

Lookup: Try this compound too: Cc1nccc(Nc2cc(-c3cnc(C)c(OCCN(C)C)c3)ccn2)n1 [Compound I-379]
Found: < 7.00
